test_system: T1, CD44v6 glycopeptide … with O-linked GalNAc on threonine 5 and serine 12 (human)
T1 construct: Synthetic glycopeptide; also called CD44v6-Tn(S + T); Tn-glycosylated CD44v6 glycopeptide
T1 peptide: GYRQT(GalNAc)PKEDSHS(GalNAc)TTGTAAA
method_description: hybridoma screening (ELISA, flow cytometry, immunofluorescence)
Where no end group is shown, it is not given here. GalNAc = O-linked GalNAc (Tn antigen, GalNAc-alpha1-O-Ser/Thr)
reported_endpoint: binding result

18G9 antibody (antibody, V domains shown, Murine monoclonal antibody) VH: DVQLVESGGGLVQPGGSRKLSCAASGFTFSSFGMHWVRQAPEKGLEWVAYISSGSSTIYYADTVKGRFTISRDNPKNTLFLQMTSLRSEDTAMYYCARGSYRAMDYWGQGTSVTVSS VL: QIVLTQSPALMSASPGEKVTMTCSASSSVNYMFWYQQKPRSSPKPWIYLTSNLASGVPARFSGSGSGTSYSLTISSMEAEDAATYYCQLWSSNPFTFGSGTKLEIK :: binds
10H4 antibody (antibody, V domains shown, Rabbit monoclonal antibody) VH: QSLEESGGRLVTPGTPLTLTCTASGFTINTYHMGWFRQAPGKGLQYIGIVSHDVGTYYATWAKGRFTISKTSSTTVDLRMPSPTTEDTATYICARGPGYWTFNLWGQGTLVTVSS VL: AQVLTQTPASVSAAVGGTVTINCQASQSVYNNNQLSWYQQKPGQPLKQLIYKASTLASGVPSRFKGSGSGSQFTLTISDLECDDAATYFCAGGYKGDIHPFGGGTEVVVK :: binds
1D12 antibody (antibody, V domains shown, Murine monoclonal antibody) VH: DVQLVESGGGLVQPGGSRKLSCAASGFTFSSFGIHWVRQAPEKGLEWVAYISSGSSTIYYADTVKGRFTISRDNPKNTLFLQMTSLRSEDTAMYYCARGSKVVAKSRGYWYFDVWGAGTTVTVSS VL: DVVVTQTPLFLPVSFGDQVSISCRSSQSLANNYGITYLSWYLHRPGQSPQLLIYGISNRFSGVPDRFSGSGSGTDFTLKISTIKPEDLGMYYCLQGTHQPWTFGGGTKLEIK :: binds
